This collection of values is drawn from PubChem BioAssay (NCI).

System: CAKI-1 renal
Assay: NCI-60 one-dose screen, 48 h (100 = growth as untreated, 0 = no growth, -100 = all killed)
Conditions: 10 µM unless noted
Description: Growth inhibition of the CAKI-1 human tumor cell line is measured as a screen for anti-cancer activity. Cells are grown in 96 well plates and exposed to the test compound for 48 hours. Compounds are tested at a single concentration, which is 10^-5 M for most compounds. The reported endpoint is percent growth (GI% or GIPRCNT), where numbers from 0 - 100% represent growth inhibition, and numbers from -100% - 0 represent cell death. For example, a value of 40 represents 60% growth inhibition. […]
About 83,000 compounds went through this panel and 20% of them were active in at least one assay; those are over-represented in the sample as a whole.
measured.parameter: growth (%)

- molecule: "CCCCCCCCCCCCCCCC1=NC(C)(C)CN1C(C)C"
  number: -45.4
- molecule: "O=P(O)(O)C(O)(Cc1cccnc1)P(=O)(O)O"
  number: 94.2
- molecule: "C#C[C@]1(O)CC[C@H]2[C@@H]3CC=C4c5sc(-c6cccc(Br)c6)nc5CC[C@]4(C)[C@H]3CC[C@@]21C"
  number: 35
- molecule: "COc1ccc(-c2cc(-c3cn(-c4cccc(Cl)c4)nc3-c3ccc(OC)cc3)[nH]c(=S)n2)cc1"
  number: 104
- molecule: "COc1cccc(/C=N\\Nc2ccc([N+](=O)[O-])cn2)c1O"
  number: 27.8
- molecule: "CN1CCC2(CC1)N=C(SCC(=O)Nc1cnc3ccccc3c1)C(c1ccc(Br)cc1)=N2"
  number: 8.73
- molecule: "CCCCCCCCOC(=O)C(C)OC(=O)OCCOCCOC(=O)OC(C)C(=O)OCCCCCCCC (configuration not stated)"
  number: 95.8

* * *

System: NCI-H322M lung
Assay: NCI-60 one-dose screen, 48 h
Conditions: 10 µM unless noted
Protocol: Growth inhibition of the NCI-H322M human Non-Small Cell Lung tumor cell line is measured as a screen for anti-cancer activity. Cells are grown in 96 well plates and exposed to the test compound for 48 hours. Compounds are tested at a single concentration, which is 10^-5 M for most compounds. The reported endpoint is percent growth (GI% or GIPRCNT), where numbers from 0 - 100% represent growth inhibition, and numbers from -100% - 0 represent cell death. […]
About 83,000 compounds went through this panel and 20% of them were active in at least one assay; those are over-represented in the sample as a whole. Calls of active or inactive are those of the source. Rule for the calls: active = growth percent below 10; inactive = the rest.
Outcome codes: active, inactive

- compound: "Cn1c(-c2ccccc2)cc(=O)n1-c1ccccc1"
  target.of.assay: "NCI-H322M lung"
  label: "inactive"
- compound: "C=CCCCCOc1cccc(/C=C2\\N=C3SCCCN3C2=O)c1"
  target.of.assay: "NCI-H322M lung"
  label: "inactive"
- compound: "Cc1ccc(C(=O)CC(=O)C(F)(F)C(F)(F)C(F)(F)F)s1"
  target.of.assay: "NCI-H322M lung"
  label: "inactive"
- compound: "CCCCCCCCCCCCCCCCCC(=O)[O][Sn]([CH2]CCC)([CH2]CCC)[CH2]CCC"
  target.of.assay: "NCI-H322M lung"
  label: "active"
- compound: "Cc1ccccc1C1CC(=O)c2ccccc2C1C (stereo not drawn)"
  target.of.assay: "NCI-H322M lung"
  label: "inactive"
- compound: "COc1cc(CN(CCC(O)N2CCCC2=O)Cc2ccc3c(c2)OCO3)cc(OC)c1OC (stereo not drawn)"
  target.of.assay: "NCI-H322M lung"
  label: "inactive"
- compound: "C#CCO[C@H]1CC[C@H](OCC#C)[C@@H]2[C@H]1[C@H]1C[C@@H]3[C@@]4(C)CCC[C@@](C)(C(=O)OC)[C@@H]4CC[C@@]23C=C1C(C)C"
  target.of.assay: "NCI-H322M lung"
  label: "inactive"
- compound: "CCN1C(=O)N(CC)C2C1NC(=O)N2/N=C/C=C/c1ccccc1 (stereo not drawn)"
  target.of.assay: "NCI-H322M lung"
  label: "inactive"
- compound: "CSc1nc(N)c2[nH]c(-c3cc4ccccc4[nH]c3=O)nc2n1"
  target.of.assay: "NCI-H322M lung"
  label: "inactive"
- compound: "CCOC(=O)c1cc(C(=O)OCC)c(C)nc1C"
  target.of.assay: "NCI-H322M lung"
  label: "inactive"
- compound: "O=C(Nc1ccc([N+](=O)[O-])cc1)c1cc2ccccc2cc1O"
  target.of.assay: "NCI-H322M lung"
  label: "active"
- compound: "O=C(Nc1cccc(C2=NCCN2)c1)c1ccc(N=Nc2ccc(C(=O)Nc3cccc(C4=NCCN4)c3)cc2)cc1"
  target.of.assay: "NCI-H322M lung"
  label: "inactive"
- compound: "COc1ccc2nc3ccccc3c(NCc3ccc(C)cc3)c2c1"
  target.of.assay: "NCI-H322M lung"
  label: "inactive"
- compound: "COC(=O)CSc1ccc(Cl)cc1"
  target.of.assay: "NCI-H322M lung"
  label: "inactive"
- compound: "CCS(=O)(=O)Nc1cccc(Nc2c3cccc(C)c3nc3c(C)cccc23)c1OC"
  target.of.assay: "NCI-H322M lung"
  label: "inactive"
- compound: "CCOC(=O)c1cnc(SCC)nc1SC#N"
  target.of.assay: "NCI-H322M lung"
  label: "inactive"
- compound: "O=C(Cc1ccc([N+](=O)[O-])cc1)Oc1ccccc1"
  target.of.assay: "NCI-H322M lung"
  label: "inactive"
- compound: "S=C(S)Oc1cccc2cccnc12"
  target.of.assay: "NCI-H322M lung"
  label: "inactive"
- compound: "C=C1C(=O)O[C@H]2[C@H]1CC/C(COC(=O)NCc1c[nH]c3ccc(OC)cc13)=C\\CC[C@@]1(C)O[C@@H]21"
  target.of.assay: "NCI-H322M lung"
  label: "inactive"
- compound: "Brc1ccsc1Br"
  target.of.assay: "NCI-H322M lung"
  label: "inactive"
- compound: "CC(C)CC1NC(=O)C(CC(C)C)N(CO)C1=O (stereo not drawn)"
  target.of.assay: "NCI-H322M lung"
  label: "inactive"
- compound: "Clc1ccc(-c2cnc3c(-c4ccnc(N5CCNCC5)c4)cnn3c2)cc1"
  target.of.assay: "NCI-H322M lung"
  label: "inactive"
- compound: "O=[N+]([O-])c1ccc(SSc2ccc([N+](=O)[O-])cc2Cl)c(Cl)c1"
  target.of.assay: "NCI-H322M lung"
  label: "inactive"
- compound: "CN(C)c1ccc(/C=C\\c2cccc[n+]2C)cc1"
  target.of.assay: "NCI-H322M lung"
  label: "inactive"
- compound: "COc1cc(C2CC(c3ccc(Cl)cc3)=NN2C(C)=O)ccc1Oc1nc2c(c(=O)n(C)c(=O)n2C)n1C (stereo not drawn)"
  target.of.assay: "NCI-H322M lung"
  label: "inactive"
- compound: "ClCCn1cnc2c(SCc3ccccc3Cl)ncnc21"
  target.of.assay: "NCI-H322M lung"
  label: "inactive"
- compound: "NNC(=O)CSc1nc2scc(-c3ccccc3)c2c(=O)n1-c1ccccc1"
  target.of.assay: "NCI-H322M lung"
  label: "inactive"
- compound: "O=[N+]([O-])c1ccc(Sc2nc(Cl)nc(NC3CCCC3)n2)cc1"
  target.of.assay: "NCI-H322M lung"
  label: "active"
- compound: "COc1cc(CN2CCC(N3CCCC3=O)c3ccccc32)cc(OC)c1OC (stereo not drawn)"
  target.of.assay: "NCI-H322M lung"
  label: "inactive"
- compound: "COc1cccc(-c2cc(-c3cccs3)c(C#N)c(=O)[nH]2)c1"
  target.of.assay: "NCI-H322M lung"
  label: "inactive"
- compound: "CCN1CCN(Cc2ccc(NC(=O)Nc3ccc(-n4ccc5c(NC(=O)c6ccccc6)nccc54)cc3)cc2C(F)(F)F)CC1"
  target.of.assay: "NCI-H322M lung"
  label: "inactive"
- compound: "c1ccc2c(N=NSc3ncnc4nc[nH]c34)c3ccccc3nc2c1"
  target.of.assay: "NCI-H322M lung"
  label: "active"
- compound: "C/C(=N\\Nc1ccc([N+](=O)[O-])cn1)c1ccc(N)cc1"
  target.of.assay: "NCI-H322M lung"
  label: "inactive"
- compound: "COc1ccccc1CNCCCN1C(=O)c2ccc3c4c(ccc(c24)C1=O)C(=O)N(CCCNCCCN)C3=O"
  target.of.assay: "NCI-H322M lung"
  label: "active"
- compound: "Nc1c(C(=O)Nc2ccccc2)sc2nc3c(cc12)C(=O)CCC3"
  target.of.assay: "NCI-H322M lung"
  label: "inactive"
- compound: "CC(C)(C)c1nn(-c2ccccc2)c2c1C(=O)CSC(c1ccccc1Cl)N2 (stereo not drawn)"
  target.of.assay: "NCI-H322M lung"
  label: "inactive"
- compound: "O=C(CCl)N1c2ccccc2Oc2ccc3ccccc3c21"
  target.of.assay: "NCI-H322M lung"
  label: "inactive"
- compound: "COc1ccc(C(=O)OC2C(OC3C(O)COC(O[C@H]4C[C@H]5[C@@H]6CC=C7C[C@@H](O)CC[C@]7(C)[C@H]6CC[C@]5(C)[C@H]4[C@H](C)C(=O)CCC(C)C)C3OC(=O)C(C)C)OCC(O)C2O)cc1 (stereo partly drawn)"
  target.of.assay: "NCI-H322M lung"
  label: "inactive"
